Each item that follows carries a reported EC50.
Target: TLR7 (Homo sapiens)
Construct: Human peripheral blood mononuclear cells (PBMCs) consist of lymphocytes, monocytes and dendritic cells that express TLR7, TLR8 and TLR9; endogenous in cells; host or cells: cryopreserved human PBMCs from healthy donors
Assay: TLR7 human PBMC cell-based assay (antagonist, GS-986 stimulated cytokine release)
Details: human PBMCs; TLR7 agonist GS-986 400 nM, 6 hours; cytokines (IL-6 and IFNα) in supernatant; read-out: TLR-7 EC50
Answer in nM, number only, no unit symbol.

Worked cases, answers included:
Cc1cc(-c2[nH]c3cc(C(=O)N4CCCC(CN)C4)sc3c2C(C)C)cn2ncnc12 (stereo not drawn); 1.5
Cc1cc(-c2[nH]c3cc(C4CCC(N5CCC(O)C5)CC4)sc3c2C(C)C)cn2ncnc12 (stereo not drawn); 0.4
Cc1cc(-c2[nH]c3cc(C(=O)N(C)C4CCNCC4)sc3c2C(C)C)cn2ncnc12; 0.5

Any idea what EC50 was measured for Cc1cc(-c2[nH]c3cc(C(=O)N4CCC5CCNC5C4)sc3c2C(C)C)cc(C)n1 (stereo not drawn) ? 35.9

Recorded EC50 for "Cc1cc(-c2[nH]c3cc(C(=O)N(C)[C@H]4CNC[C@@H]4F)sc3c2C(C)C)cn2ncnc12" , please? 16.6

I am curious: what EC50 value has been reported for "Cc1cc(-c2[nH]c3cc(C(=O)N(C)C4CCN(C5COC5)CC4)sc3c2C(C)C)cn2ncnc12" ? 15

Fill in the blank: the reported EC50 of "Cc1cc(-c2[nH]c3cc(C4CCC5(CC4)CN(C(=O)[C@H]4COCCN4)C5)sc3c2C(C)C)cn2ncnc12" is ____. 0.23

Reported EC50 for "Cc1cc(-c2[nH]c3cc(C(=O)N(C)CC4CCNCC4)sc3c2C(C)C)cn2ncnc12" : what is it? 3.7

Which EC50 is reported for this molecule? "Cc1cc(-c2[nH]c3cc(C(=O)N(C)CCN(C)C)sc3c2C(C)C)cn2ncnc12" 0.7

* * *

Target: TLR8 (Homo sapiens)
Construct: Human peripheral blood mononuclear cells (PBMCs) consist of lymphocytes, monocytes and dendritic cells that express TLR7, TLR8 and TLR9; endogenous in cells
Assay: TLR8 human PBMC cell-based assay (antagonist, Compound A stimulated cytokine release)
Details: human PBMCs; TLR8 agonist Compound A 800 nM, 6 hours; cytokines (TNFa and IL 12p40) in supernatant; read-out: TLR-8 EC50
Description: Human peripheral blood mononuclear cells (PBMCs) consist of lymphocytes, monocytes and dendritic cells that express TLR7, TLR8 and TLR9. These cells respond to TLR7, TLR8 and TLR9 ligand stimulation and produce cytokines and chemokines in vitro and in vivo. Human PBMCs are therefore suitable to be used in a cell-based assay to assess the in vitro potency of a TLR 7, 8, and/or 9 antagonist. […]
QUANTITY MEASURED: pEC50
# pEC50: negative log10 of molar concentration; output just the value

Cc1cc(-c2[nH]c3cc(C4CCC5(CC4)CN(C(=O)CN4CCCC4)C5)sc3c2C(C)C)cn2ncnc12; 7.91

State the recorded pEC50 for this entry: Cc1cc(-c2[nH]c3cc(C4CCNC5(CCC5)C4)sc3c2C(C)C)cn2ncnc12 (stereo not shown) 8.09

So what does the record say about pEC50 for Cc1cc(-c2[nH]c3cc(C(=O)N4CCNC(C#N)C4)sc3c2C(C)C)cc(C)n1 (stereo not shown) ? 6.43

* * *

Biological target: TLR7 (Homo sapiens, UniProt Q9NYK1)
Construct: Human peripheral blood mononuclear cells (PBMCs) consist of lymphocytes, monocytes and dendritic cells that express TLR7, TLR8 and TLR9; endogenous in cells
Sequence (Q9NYK1 27-1049): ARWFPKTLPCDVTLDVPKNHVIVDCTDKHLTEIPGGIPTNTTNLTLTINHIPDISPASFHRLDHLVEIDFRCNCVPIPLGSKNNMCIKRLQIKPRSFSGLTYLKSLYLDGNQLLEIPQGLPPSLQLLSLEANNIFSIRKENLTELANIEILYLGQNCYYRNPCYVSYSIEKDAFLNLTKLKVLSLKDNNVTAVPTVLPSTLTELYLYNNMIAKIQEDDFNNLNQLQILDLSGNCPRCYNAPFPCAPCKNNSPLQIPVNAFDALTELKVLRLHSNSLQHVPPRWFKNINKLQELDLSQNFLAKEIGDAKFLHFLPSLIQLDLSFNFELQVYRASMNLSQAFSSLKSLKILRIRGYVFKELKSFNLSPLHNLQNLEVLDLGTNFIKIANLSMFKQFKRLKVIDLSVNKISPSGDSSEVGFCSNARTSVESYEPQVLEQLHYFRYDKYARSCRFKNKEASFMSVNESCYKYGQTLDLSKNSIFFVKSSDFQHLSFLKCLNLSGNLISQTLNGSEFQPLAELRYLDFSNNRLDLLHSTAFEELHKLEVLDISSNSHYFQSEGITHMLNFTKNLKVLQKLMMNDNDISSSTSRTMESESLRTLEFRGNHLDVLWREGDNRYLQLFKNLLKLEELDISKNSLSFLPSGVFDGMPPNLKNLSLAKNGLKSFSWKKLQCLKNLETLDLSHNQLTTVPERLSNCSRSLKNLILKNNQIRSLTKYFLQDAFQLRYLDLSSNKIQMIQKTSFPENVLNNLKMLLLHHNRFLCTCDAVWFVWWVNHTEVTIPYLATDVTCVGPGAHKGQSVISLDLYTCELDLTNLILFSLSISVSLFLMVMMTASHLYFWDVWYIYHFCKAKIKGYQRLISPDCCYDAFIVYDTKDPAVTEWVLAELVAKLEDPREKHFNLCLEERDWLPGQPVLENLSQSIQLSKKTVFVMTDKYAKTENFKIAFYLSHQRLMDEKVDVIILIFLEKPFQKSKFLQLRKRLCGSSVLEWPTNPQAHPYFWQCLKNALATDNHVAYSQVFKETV
Experiment: TLR7 human PBMC cell-based assay (antagonist, GS-986 stimulated cytokine release)
Settings: human PBMCs; TLR7 agonist GS-986 400 nM, 6 hours; cytokines (IL-6 and IFNα) in supernatant; read-out: TLR-7 EC50
Text: Human peripheral blood mononuclear cells (PBMCs) consist of lymphocytes, monocytes and dendritic cells that express TLR7, TLR8 and TLR9. These cells respond to TLR7, TLR8 and TLR9 ligand stimulation and produce cytokines and chemokines in vitro and in vivo. Human PBMCs are therefore suitable to be used in a cell-based assay to assess the in vitro potency of a TLR 7, 8, and/or 9 antagonist. […]
QUANTITY MEASURED: pEC50
Please treat pEC50 as minus the base-10 logarithm of the molar concentration.

May I ask what pEC50 has been recorded for "Cc1cc(-c2[nH]c3cc(C(=O)N(C)[C@H]4CCNC[C@@H]4F)sc3c2C(C)C)cn2ncnc12" ? 9.40

Recorded pEC50 for "Cc1cc(-c2[nH]c3cc(-c4nc(N5CCNCC5)no4)sc3c2C(C)C)cc(C)n1" , please? 8.43

Query: pEC50; subject: "Cc1cc(-c2[nH]c3cc(-c4ccc(N5CCNCC5)cc4)sc3c2C(C)C)cn2ncnc12" 9.22

# lookup: pEC50 of "Cc1cc(-c2[nH]c3cc(C(=O)N4C[C@H](C)NC[C@H]4C)sc3c2C(C)C)cn2ncnc12" 9.30

* * *

// reported EC50 for each item listed
Molecular target: TLR8 (Homo sapiens, UniProt Q9NR97)
Construct: Human peripheral blood mononuclear cells (PBMCs) consist of lymphocytes, monocytes and dendritic cells that express TLR7, TLR8 and TLR9; endogenous in cells; host or cells: cryopreserved human PBMCs from healthy donors
Assay: TLR8 human PBMC cell-based assay (antagonist, Compound A stimulated cytokine release)
Details: human PBMCs; TLR8 agonist Compound A 800 nM, 6 hours; cytokines (TNFa and IL 12p40) in supernatant; read-out: TLR-8 EC50
Description: Human peripheral blood mononuclear cells (PBMCs) consist of lymphocytes, monocytes and dendritic cells that express TLR7, TLR8 and TLR9. These cells respond to TLR7, TLR8 and TLR9 ligand stimulation and produce cytokines and chemokines in vitro and in vivo. Human PBMCs are therefore suitable to be used in a cell-based assay to assess the in vitro potency of a TLR 7, 8, and/or 9 antagonist. […]

Cc1cc(-c2[nH]c3cc(C(=O)N(C)C4CCNCC4)sc3c2C(C)C)cn2ncnc12 [Example 56]; 10.2 nM
CCc1c(-c2cc(C)c3ncnn3c2)[nH]c2cc(C(=O)N(C)C3CCNCC3)sc12 [Example 63]; 15.6 nM
Cc1cc(-c2[nH]c3cc(C(=O)N4CCNC[C@H]4C)sc3c2C(C)C)cn2ncnc12 [Example 148]; 11 nM
Cc1cc(-c2[nH]c3cc(C(=O)N(C)[C@H]4CCNC4)sc3c2C(C)C)cn2ncnc12 [Example 39]; 11.2 nM
Cc1cc(-c2[nH]c3cc(C4C5CCC4CN(CC(N)=O)C5)sc3c2C(C)C)cn2ncnc12 (stereo not shown) [Example 309]; 17.1 nM

# query: EC50 of entry Cc1cc(-c2[nH]c3cc(C(=O)N(C)CC4CCN(CC(N)=O)CC4)sc3c2C(C)C)cn2ncnc12 [Example 174] 16.8 nM

Give the measured EC50 of Cc1cc(-c2[nH]c3cc(C(=O)N4C[C@H]5NCCO[C@@H]5C4)sc3c2C(C)C)cn2ncnc12 [Example 131] . 6.7 nM

Bench note: what EC50 did Cc1cc(-c2[nH]c3cc(C(=O)N4CC[C@H](C)[C@H](N)C4)sc3c2C(C)C)cn2ncnc12 [Example 105] show? 16.3 nM

Fill in: EC50 of Cc1nn(C2CCNCC2)cc1-c1cc2[nH]c(-c3cc(C)c4ncnn4c3)c(C(C)C)c2s1 [Example 220] is ___ 11.2 nM

Given Cc1cc(-c2[nH]c3cc(C(=O)N(C)[C@@H]4CNC[C@H](C(F)(F)F)C4)sc3c2C(C)C)cn2ncnc12 [Example 276] , state its recorded EC50. 16.3 nM

* * *

Molecular target: TLR8 (Homo sapiens, UniProt Q9NR97)
Construct: Human peripheral blood mononuclear cells (PBMCs) consist of lymphocytes, monocytes and dendritic cells that express TLR7, TLR8 and TLR9; endogenous in cells
Sequence (Q9NR97 27-1041): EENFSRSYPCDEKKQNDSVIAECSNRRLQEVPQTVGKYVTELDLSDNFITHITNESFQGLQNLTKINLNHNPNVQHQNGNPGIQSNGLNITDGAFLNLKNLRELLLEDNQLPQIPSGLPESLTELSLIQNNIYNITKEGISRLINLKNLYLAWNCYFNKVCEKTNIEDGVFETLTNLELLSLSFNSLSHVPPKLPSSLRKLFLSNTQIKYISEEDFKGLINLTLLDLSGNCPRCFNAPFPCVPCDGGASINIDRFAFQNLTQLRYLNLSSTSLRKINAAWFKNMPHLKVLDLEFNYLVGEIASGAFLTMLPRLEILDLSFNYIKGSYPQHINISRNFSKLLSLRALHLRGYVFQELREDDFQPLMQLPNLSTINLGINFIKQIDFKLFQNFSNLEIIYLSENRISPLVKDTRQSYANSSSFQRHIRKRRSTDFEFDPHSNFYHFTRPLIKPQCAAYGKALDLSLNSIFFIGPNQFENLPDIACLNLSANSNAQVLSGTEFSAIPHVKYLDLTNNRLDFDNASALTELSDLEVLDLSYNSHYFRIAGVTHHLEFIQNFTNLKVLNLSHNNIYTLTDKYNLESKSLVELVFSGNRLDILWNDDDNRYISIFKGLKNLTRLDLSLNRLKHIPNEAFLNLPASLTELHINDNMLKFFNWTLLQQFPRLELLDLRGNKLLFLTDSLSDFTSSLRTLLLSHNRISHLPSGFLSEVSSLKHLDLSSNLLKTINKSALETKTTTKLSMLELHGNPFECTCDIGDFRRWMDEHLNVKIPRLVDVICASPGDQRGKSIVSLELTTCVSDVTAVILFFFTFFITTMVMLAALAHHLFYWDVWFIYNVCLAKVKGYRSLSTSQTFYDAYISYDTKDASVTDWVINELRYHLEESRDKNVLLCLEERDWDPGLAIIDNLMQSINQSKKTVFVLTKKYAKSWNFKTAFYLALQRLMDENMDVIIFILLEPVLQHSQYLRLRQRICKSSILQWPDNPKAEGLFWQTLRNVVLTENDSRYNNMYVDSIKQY
Test: TLR8 human PBMC cell-based assay (antagonist, Compound A stimulated cytokine release)
Details: human PBMCs; TLR8 agonist Compound A 800 nM, 6 hours; cytokines (TNFa and IL 12p40) in supernatant; read-out: TLR-8 EC50
QUANTITY MEASURED: pEC50
The scale used: pEC50 is minus the common logarithm of the concentration in molar units.

// known answers, use as guide
Cc1cc(-c2[nH]c3cc(-c4cnn(C5CCNCC5)c4)sc3c2C(C)C)cn2ncnc12 [Example 215]; 8.64
Cc1cc(-c2[nH]c3cc(C4CCN(S(=O)(=O)C5CCNCC5)CC4)sc3c2C(C)C)cn2ncnc12 [Example 184]; 8.55
Cc1cc(-c2[nH]c3cc(C(=O)N(C)C4CCC(N5CCN(CC(F)F)CC5)CC4)sc3c2C(C)C)cn2ncnc12 (centres unmarked) [Example 249]; 7.92
Cc1cc(-c2[nH]c3cc(C4CCCN(CC(N)=O)C4)sc3c2C(C)C)cn2ncnc12 (centres unmarked) [Example 171]; 7.84
Cc1cc(-c2[nH]c3cc(C4CC5CCCC(C4)N5)sc3c2C(C)C)cn2ncnc12 (centres unmarked) [Example 297]; 7.71
Cc1cc(-c2[nH]c3cc(-c4cn(C5CCN(CCO)CC5)nn4)sc3c2C(C)C)cn2ncnc12 [Example 264]; 8.80
Cc1cc(-c2[nH]c3cc(C4CCC5(CC4)CN(C(=O)[C@H]4CCCN4C)C5)sc3c2C(C)C)cn2ncnc12 [Example 207]; 7.70
Cc1cc(-c2[nH]c3cc(C(=O)N(C4CCC4)C4CCN(CC(N)=O)CC4)sc3c2C(C)C)cn2ncnc12 [Example 167]; 7.28

Report pEC50 for Cc1cc(-c2[nH]c3cc(C(=O)N4CCNC(C)(C)C4)sc3c2C(C)C)cn2ncnc12 [Example 85] please. 9.22

Where these numbers come from: patent US20240217990A1
